- System: Enterococcus faecium (VanA VRE, ATCC BAA-2317)
- assay-remarks: In vitro antimicrobial assay (MIC), VanA E. faecium
- Assay type: cell-based
- condition-parameters: VanA E. faecium ATCC BAA-2317
measured-metric: antibiotic susceptibility profile of the strain

CC1(C)S[C@@H]2[C@H](NC(=O)[C@H](N)c3ccccc3)C(=O)N2[C@H]1C(=O)O [ampicillin] :: resistant
CN[C@H](CC(C)C)C(=O)N[C@H]1C(=O)N[C@@H](CC(N)=O)C(=O)N[C@H]2C(=O)N[C@H]3C(=O)N[C@H](C(=O)N[C@H](C(=O)O)c4cc(O)cc(O)c4-c4cc3ccc4O)[C@H](O)c3ccc(c(Cl)c3)Oc3cc2cc(c3O[C@@H]2O[C@H](CO)[C@@H](O)[C@H](O)[C@H]2O[C@H]2C[C@](C)(N)[C@H](O)[C@H](C)O2)Oc2ccc(cc2Cl)[C@H]1O [Compound 1, vancomycin] :: resistant

###

- Tested on: vancomycin-resistant Enterococcus faecalis (VanA VRE, BM4166)
- assay-remarks: In vitro antimicrobial assay (MIC), VanA E. faecalis
- Format: cell-based
- condition-parameters: VanA E. faecalis BM 4166
- Method: […] The lowest concentration of antibiotic (in μg/mL) capable of eliminating cell growth in the wells is the reported MIC value. The reported MIC values for the vancomycin analogues were determined against vancomycin as a standard in the first well.* […]
measured-metric: antibiotic susceptibility profile of the strain

O=C(N[C@H](CO)[C@H](O)c1ccc([N+](=O)[O-])cc1)C(Cl)Cl :: resistant
CC[C@H]1OC(=O)[C@H](C)[C@@H](O[C@H]2C[C@@](C)(OC)[C@@H](O)[C@H](C)O2)[C@H](C)[C@@H](O[C@@H]2O[C@H](C)C[C@H](N(C)C)[C@H]2O)[C@](C)(O)C[C@@H](C)C(=O)[C@H](C)[C@@H](O)[C@]1(C)O :: resistant
CN[C@H](CC(C)C)C(=O)N[C@H]1C(=O)N[C@@H](CC(N)=O)C(=O)N[C@H]2C(=O)N[C@H]3C(=O)N[C@H](C(=O)N[C@H](C(=O)O)c4cc(O)cc(O)c4-c4cc3ccc4O)[C@H](O)c3ccc(c(Cl)c3)Oc3cc2cc(c3O[C@@H]2O[C@H](CO)[C@@H](O)[C@H](O)[C@H]2O[C@H]2C[C@](C)(N)[C@H](O)[C@H](C)O2)Oc2ccc(cc2Cl)[C@H]1O :: resistant

###

- Tested on: Enterococcus faecium (VanA VRE, ATCC BAA-2317)
- assay-remarks: In vitro antimicrobial assay (MIC), VanA E. faecium
- Format: cell-based
- condition-parameters: VanA E. faecium ATCC BAA-2317
measured-metric: antibiotic susceptibility profile of the strain

CC[C@H]1OC(=O)[C@H](C)[C@@H](O[C@H]2C[C@@](C)(OC)[C@@H](O)[C@H](C)O2)[C@H](C)[C@@H](O[C@@H]2O[C@H](C)C[C@H](N(C)C)[C@H]2O)[C@](C)(O)C[C@@H](C)C(=O)[C@H](C)[C@@H](O)[C@]1(C)O :: resistant
CC1(C)S[C@@H]2[C@H](NC(=O)Cc3ccccc3)C(=O)N2[C@H]1C(=O)O :: resistant

###

- System: vancomycin-resistant Enterococcus faecalis (VanA VRE, BM4166)
- assay-remarks: In vitro antimicrobial assay (MIC), VanA E. faecalis
- Assay type: cell-based
- condition-parameters: Enterococcus faecalis, VRE, read-out: Antimicrobial Activity, MIC, VanA E. faecalis
measured-metric: MIC
Answer format: number, then unit.

Ask | Fill in MIC for record CCCCCCCCCCCCCC[N+](C)(C)CCCNC(=O)[C@H]1NC(=O)[C@H]2NC(=O)[C@@H](NC(=O)[C@@H]3NC(=O)[C@H](CC(N)=O)NC(=O)[C@H](NC(=O)[C@@H](CC(C)C)NC)[C@H](O)c4ccc(c(Cl)c4)Oc4cc3cc(c4OC3OC(CO)C(O)[C@H](O)[C@@H]3O[C@H]3CC(C)(NCc4ccc(-c5ccc(Cl)cc5)cc4)[C@H](O)[C@H](C)O3)Oc3ccc(cc3Cl)[C@H]2O)c2ccc(O)c(c2)-c2c(O)cc(O)cc21 (stereo partly shown) [Compound 17]
Reply | 2 µg/mL

###

- System: vancomycin-resistant Enterococcus faecalis (VanA VRE, BM4166)
- assay-remarks: In vitro antimicrobial assay (MIC), VanA E. faecalis
- Type: cell-based
- condition-parameters: Enterococcus faecalis, VRE, read-out: Antimicrobial Activity, MIC, VanA E. faecalis
Criterion: MIC strictly less than 5 µg/mL. Met: criterion met. Not met: criterion not met.

CN[C@H](CC(C)C)C(=O)N[C@H]1C(=O)N[C@@H](CC(N)=O)C(=O)N[C@H]2C(=O)N[C@@H]3C(=O)N[C@H](C(=O)N[C@H](C(=O)NCCC[N+]4(C)CCCC4)c4cc(O)cc(O)c4-c4cc3ccc4O)[C@H](O)c3ccc(c(Cl)c3)Oc3cc2cc(c3OC2OC(CO)C(O)[C@H](O)[C@@H]2O[C@H]2CC(C)(NCc3ccc(-c4ccc(Cl)cc4)cc3)[C@H](O)[C@H](C)O2)Oc2ccc(cc2Cl)[C@H]1O (stereo partly shown) :: criterion met
CN[C@H](CC(C)C)C(=O)N[C@H]1C(=O)N[C@@H](CC(N)=O)C(=O)N[C@H]2C(=O)N[C@@H]3C(=O)N[C@H](C(=O)N[C@H](C(=O)NCCC[N+](C)(C)C)c4cc(O)cc(O)c4-c4cc3ccc4O)[C@H](O)c3ccc(c(Cl)c3)Oc3cc2cc(c3OC2OC(CO)C(O)[C@H](O)[C@@H]2O[C@H]2CC(C)(N)[C@H](O)[C@H](C)O2)Oc2ccc(cc2Cl)[C@H]1O (stereo partly shown) :: criterion not met
CNC(CC(C)C)C(=O)NC1C(=O)NC(CC(N)=O)C(=O)NC2CNC3C(=O)NC(C(=O)NC(C(=O)O)c4cc(O)cc(O)c4-c4cc3ccc4O)C(O)c3ccc(c(Cl)c3)Oc3cc2cc(c3OC2OC(CO)C(O)C(O)C2OC2CC(C)(N)C(O)C(C)O2)Oc2ccc(cc2Cl)[C@@H]1O (stereo partly shown) [Compound 4, [Ψ[CH2NH] Tpg^4]vancomycin] :: criterion not met

Ask | Quick check: does CN[C@H](CC(C)C)C(=O)N[C@H]1C(=O)N[C@@H](CC(N)=O)C(=O)N[C@H]2C(=O)N[C@@H]3C(=O)N[C@H](C(=O)N[C@H](C(=O)NCCCN(C)C)c4cc(O)cc(O)c4-c4cc3ccc4O)[C@H](O)c3ccc(c(Cl)c3)Oc3cc2cc(c3OC2OC(CO)C(O)[C@H](O)[C@@H]2O[C@H]2CC(C)(N)[C@H](O)[C@H](C)O2)Oc2ccc(cc2Cl)[C@H]1O (stereo partly shown) have MIC under 5 µg/mL?
Reply | criterion not met

Ask | Quick check: does CCCCCCCCCCCCCC[N+](C)(C)CCCNC(=O)[C@H]1NC(=O)[C@H]2NC(=O)[C@@H](NC(=O)[C@@H]3NC(=O)[C@H](CC(N)=O)NC(=O)[C@H](NC(=O)[C@@H](CC(C)C)NC)[C@H](O)c4ccc(c(Cl)c4)Oc4cc3cc(c4OC3OC(CO)C(O)[C@H](O)[C@@H]3O[C@H]3CC(C)(N)[C@H](O)[C@H](C)O3)Oc3ccc(cc3Cl)[C@H]2O)c2ccc(O)c(c2)-c2c(O)cc(O)cc21 (stereo partly shown) have MIC under 5 µg/mL?
Reply | criterion met

Ask | Quick check: does CN[C@H](CC(C)C)C(=O)N[C@H]1C(=O)N[C@@H](CC(N)=O)C(=O)N[C@H]2C(=O)N[C@@H]3C(=O)N[C@H](C(=O)N[C@H](C(=O)NCCC[N+]4(C)CCCC4)c4cc(O)cc(O)c4-c4cc3ccc4O)[C@H](O)c3ccc(c(Cl)c3)Oc3cc2cc(c3OC2OC(CO)C(O)[C@H](O)[C@@H]2O[C@H]2CC(C)(N)[C@H](O)[C@H](C)O2)Oc2ccc(cc2Cl)[C@H]1O (stereo partly shown) have MIC under 5 µg/mL?
Reply | criterion met
